Where do the numbers come from? From patent US20090227671A1.

assay: Acute toxicity due to oral administration in SD rats; type: in vivo; settings: SD, rat, in vivo, 1 g/kg; oral, single administration
Measured Property: LD50

## Task Consider the compound O=C(/C=C/c1ccc(O)c2c1[C@H](C(=O)O[C@H](Cc1ccc(O)c(O)c1)C(=O)[O-])[C@@H](c1ccc(O)c(O)c1)O2)O[C@H](Cc1ccc(O)c(O)c1)C(=O)[O-].[Mg+2] [LAB, lithospermate B] and give its measured LD50.
## Result > 500 mg/kg
